tested on: CD2F1 mice, L1210 leukemia ip, survival T/C; assay: NCI In Vivo Anticancer Drug Screen. Data for tumor model L1210 Leukemia (intraperitoneal) in CD2F1 (CDF1) mice; conditions: endpoint: median survival time; dose: 50.0 mg/kg/injection; schedule: Q01DX005 (ip); vehicle: saline with Tween-80; higher = longer survival
Toxic doses and inconclusive results are not listed.
Entries and their measured T/C follow.
PROPERTY_NAME: T/C

{"columns": ["MOLECULE", "PROPERTY_NAME", "MEAS_VALUE"],
 "data": [
  ["Cc1ccc(C(=Nc2ccccc2)N=P(c2ccccc2)(c2ccccc2)c2ccccc2)cc1", "T/C", "105 % of control"],
  ["CS(=O)(=O)OCC1OC(n2ccc(NC(=O)c3ccccc3)nc2=O)CC1OS(C)(=O)=O (stereo not given)", "T/C", "107 % of control"],
  ["CC(C)(C)SC1C(O)C(CO)OC1n1ccc(Nc2ccccc2)nc1=O (stereo not given)", "T/C", "102 % of control"],
  ["N#Cc1nn(C2OC(COC(=O)c3ccccc3)C(OC(=O)c3ccccc3)C2OC(=O)c2ccccc2)c2nc[nH]c(=O)c12 (stereo not given)", "T/C", "97 % of control"],
  ["O=C1C=CC(=O)C(c2cn(C3CC(O)C(CO)O3)c(=O)[nH]c2=O)=C1 (stereo not given)", "T/C", "108 % of control"]
]}

* * *

system: CD2F1 mice, L1210 leukemia ip, survival T/C; test: NCI In Vivo Anticancer Drug Screen. Data for tumor model L1210 Leukemia (intraperitoneal) in CD2F1 (CDF1) mice; conditions: endpoint: mean survival time; dose: 400.0 mg/kg/injection; schedule: Q04DX003 (ip); vehicle: saline with Tween-80; higher = longer survival
Toxic doses and inconclusive results are not listed.
The entries below are paired with their reported T/C.
PROPERTY_NAME: T/C

{"columns": ["COMPOUND", "MEAS_VALUE"],
 "data": [
  ["CCCCCCCCCCCCCCCCCCNC(=O)Nc1ccc(CC)cc1", "93 % of control"],
  ["CC(C)CCCC(C)C1CCC2C3CC4OC45CC(O)CCC5(C)C3CCC12C (stereo not drawn)", "96 % of control"],
  ["CC1SC(=S)N(c2ccccc2)C1=O (stereo not drawn)", "101 % of control"],
  ["O=C1OC(c2ccccc2)(c2ccccc2)c2ccc3ccccc3c21", "90 % of control"],
  ["CCOC(=O)Cc1nc2ccccc2[nH]1", "91 % of control"],
  ["NC(=O)COc1c(I)cc(I)cc1I", "96 % of control"],
  ["O=Cc1c2ccc(Cl)cc2nc2cc(Cl)ccc12", "102 % of control"],
  ["COC(=O)c1cc2ccccc2cc1OC", "97 % of control"],
  ["CN(C)C", "104 % of control"],
  ["CCOC(=O)C(=CNc1ccc(C)cn1)C(=O)OCC", "103 % of control"],
  ["CC(=O)Nc1ccc2ccccc2c1-c1c(NC(C)=O)ccc2ccccc12", "95 % of control"],
  ["OCCOc1ccc(Cl)cc1", "103 % of control"],
  ["COC(=O)C(C)NC(=O)OCc1ccccc1 (stereo not drawn)", "101 % of control"],
  ["O=c1[nH]c2ccc(I)cc2c(=O)o1", "104 % of control"],
  ["COc1ccc(C(C)N=CC(C)(C)C)cc1 (stereo not drawn)", "88 % of control"],
  ["O=C(O)/C=C\\C(=O)Nc1ccc(Cl)cc1", "94 % of control"],
  ["CCc1cc(CSc2ccc(Cl)cc2)ccc1N", "98 % of control"],
  ["OCCc1ccccc1", "93 % of control"],
  ["CCCCC(NC(=O)C(C)NC(=O)OCc1ccccc1)C(=O)O (stereo not drawn)", "98 % of control"],
  ["O=C1CC(=Nc2ccc([N+](=O)[O-])cc2)NN1c1c(Cl)cc(Cl)cc1Cl", "97 % of control"],
  ["CC(C(=O)c1ccccc1)=C(C(F)(F)F)C(F)(F)F", "100 % of control"],
  ["Cc1ccc(Nc2n[nH]c(=S)s2)cc1C", "109 % of control"],
  ["O=c1cc(Cl)c(=O)[nH][nH]1", "96 % of control"],
  ["C#CCN(CC#C)C(=O)CCCCCCCCC=C", "98 % of control"],
  ["O=C1CCc2cccc(O)c21", "108 % of control"],
  ["OC1C=CC2CC1C2 (stereo not drawn)", "98 % of control"],
  ["O=[N+]([O-])C1C2C=CC(C2)C1c1ccccc1 (stereo not drawn)", "102 % of control"],
  ["COC(=O)Nc1cccc(OC(=O)N(C(C)C)C(C)C)c1", "96 % of control"]
]}

* * *

T/C values, listed per item
test system: CD2F1 mice, L1210 leukemia ip, survival T/C; experiment: NCI In Vivo Anticancer Drug Screen. Data for tumor model L1210 Leukemia (intraperitoneal) in CD2F1 (CDF1) mice; conditions: endpoint: mean survival time; dose: 50.0 mg/kg/injection; schedule: Q04DX003 (ip); vehicle: saline with Tween-80; higher = longer survival
Toxic doses and inconclusive results are not listed.
PROPERTY_NAME: T/C

{"columns": ["COMPOUND", "MEAS_VALUE"],
 "data": [
  ["Cc1cc(=O)n(C)c2ccccc12", "95 % of control"],
  ["O/N=C/c1ccc(O)cc1", "94 % of control"],
  ["CC(NC1=C(Cl)C(=O)c2ccccc2C1=O)c1ccccc1 (stereo not given)", "96 % of control"],
  ["C1=C(Nc2ccccc2)C(=Nc2ccccc2)C=C(Nc2ccccc2)C1=Nc1ccccc1", "96 % of control"],
  ["Cc1ccc(S(=O)(=O)NOCCCCONS(=O)(=O)c2ccc(C)cc2)cc1", "89 % of control"],
  ["Cc1nc2ccccc2cc1C[N+]12CN3CN(CN(C3)C1)C2", "103 % of control"],
  ["Cc1cc(N2CCC(N3CCCC3)CC2)nc(/N=C(\\N)Nc2ccc(Cl)c(Cl)c2)n1", "86 % of control"],
  ["O=C1N(CCO)CNC1(c1ccccc1)c1ccccc1", "94 % of control"],
  ["[Cl][Pt][Cl].c1ccc([AsH](CC[AsH](c2ccccc2)c2ccccc2)c2ccccc2)cc1", "88 % of control"],
  ["CC1COC(Nc2cccc3c2CCCC3)=N1 (stereo not given)", "97 % of control"]
]}

* * *

test system: CD2F1 mice, L1210 leukemia ip, survival T/C; assay: NCI In Vivo Anticancer Drug Screen. Data for tumor model L1210 Leukemia (intraperitoneal) in CD2F1 (CDF1) mice; details: endpoint: mean survival time; dose: 100.0 mg/kg/injection; schedule: Q01DX009 (ip); vehicle: water; higher = longer survival
Toxic doses and inconclusive results are not listed.

{"columns": ["MOLECULE", "T/C"],
 "data": [
  ["CC1=C(c2ccccc2)OS(=O)(=O)NC1=O", "93 % of control"],
  ["CC(=O)NNC(=O)c1ccccn1", "110 % of control"],
  ["CN1CCC(CO)C1 (centres undefined)", "87 % of control"],
  ["CN(C)C=NC1=NN(C)c2ncnc3c2c1cn3C1OC(CO)C(O)C1O (centres undefined)", "103 % of control"]
]}

* * *

test system: CD2F1 mice, L1210 leukemia ip, survival T/C; assay: NCI In Vivo Anticancer Drug Screen. Data for tumor model L1210 Leukemia (intraperitoneal) in CD2F1 (CDF1) mice; conditions: endpoint: mean survival time; dose: 50.0 mg/kg/injection; schedule: Q01DX009 (ip); vehicle: Klucel (hydroxypropylcellulose) (HPC); higher = longer survival
Toxic doses and inconclusive results are not listed.

{"columns": ["COMPOUND", "MEASURED_ON", "T/C"],
 "data": [
  ["CC(=O)c1ccc2c3ccccc3n(C)c2c1", "CD2F1 mice, L1210 leukemia ip, survival T/C", "93 % of control"],
  ["Nc1ccccc1OCCCn1cc(-c2ccc(Cl)c(Cl)c2)c(N)nc1=O", "CD2F1 mice, L1210 leukemia ip, survival T/C", "94 % of control"],
  ["OCC(CO)(CO)CO", "CD2F1 mice, L1210 leukemia ip, survival T/C", "93 % of control"],
  ["CC/C(=N/NS(=O)(=O)c1ccc(C)cc1)C(=O)O", "CD2F1 mice, L1210 leukemia ip, survival T/C", "91 % of control"],
  ["COc1cc(Cl)c(CCBr)cc1OC", "CD2F1 mice, L1210 leukemia ip, survival T/C", "104 % of control"],
  ["CC1(C)CC(C)(OC(=O)c2ccccc2)[N+]([O-])=N1 (stereo not drawn)", "CD2F1 mice, L1210 leukemia ip, survival T/C", "98 % of control"],
  ["Nc1nc(N)c2cc(CNc3ccc(C(=O)NC(CC(=O)O)CC(=O)O)cc3)cnc2n1", "CD2F1 mice, L1210 leukemia ip, survival T/C", "94 % of control"],
  ["CC(=O)Oc1ccc2c3c(ccc2c1)CCCC3", "CD2F1 mice, L1210 leukemia ip, survival T/C", "93 % of control"],
  ["COc1ccc(NC(=O)Nc2nccs2)c(Cl)c1", "CD2F1 mice, L1210 leukemia ip, survival T/C", "98 % of control"],
  ["OCc1ccn2c1CCC2", "CD2F1 mice, L1210 leukemia ip, survival T/C", "100 % of control"],
  ["Cc1ccc(S(=O)(=O)NN2CCOC2=O)cc1", "CD2F1 mice, L1210 leukemia ip, survival T/C", "100 % of control"],
  ["O=C(Nc1ccc(F)c(Cl)c1)N(CCO)C1CCCCC1", "CD2F1 mice, L1210 leukemia ip, survival T/C", "91 % of control"],
  ["O=C(NCCCCCCNC(=O)Nc1cccc(Cl)c1)Nc1cccc(Cl)c1", "CD2F1 mice, L1210 leukemia ip, survival T/C", "94 % of control"],
  ["Cc1cc(Br)cc(Br)c1OCC(=O)O", "CD2F1 mice, L1210 leukemia ip, survival T/C", "96 % of control"],
  ["CSC(=C[N+](=O)[O-])SC", "CD2F1 mice, L1210 leukemia ip, survival T/C", "106 % of control"],
  ["CC=C1C=C(C(C)(C)C)C(=O)C(C(C)(C)C)=C1", "CD2F1 mice, L1210 leukemia ip, survival T/C", "102 % of control"],
  ["COc1cc(OC)c(OC)cc1/C=C\\c1ccnc2ccccc12", "CD2F1 mice, L1210 leukemia ip, survival T/C", "98 % of control"],
  ["Cc1cc(N(CCCl)CCCl)ccc1C=Nc1cccnc1", "CD2F1 mice, L1210 leukemia ip, survival T/C", "101 % of control"]
]}

Numbers sourced from PubChem BioAssay AID256.
